- Tested on: P388 leukemia ip, CD2F1 mice, survival T/C
- Protocol: NCI In Vivo Anticancer Drug Screen. Data for tumor model P388 Leukemia (intraperitoneal) in CD2F1 (CDF1) mice
- Condition Summary: endpoint: median survival time; dose: 400.0 mg/kg/injection; schedule: Q04DX002 (ip); vehicle: saline with Tween-80; higher = longer survival
Toxic doses and inconclusive results are not listed.
Measure: T/C

A selection of reference data follows.
Compound | Measure | Value Reported
O=C1OC(COCc2ccccc2)C/C1=C\c1ccc2c(c1)OCO2 (stereo unspecified) | T/C | 86 % of control
CNc1nc(OC)nc2c1cnn2C1CCCCO1 (stereo unspecified) | T/C | 94 % of control
CCN(CC)C1=NS(=O)(=O)c2ccccc2C(NN)=C1C | T/C | 97 % of control
N#Cc1c(-c2ccc(Cl)cc2)c(-c2ccc(Cl)cc2)nn(CCCl)c1=O | T/C | 91 % of control
c1ccc(CNSC(c2ccccc2)(c2ccccc2)c2ccccc2)cc1 | T/C | 92 % of control

Task: # get_value(readout='T/C', item= `C=Cn1c([N+](=O)[O-])cnc1/C=C/c1ccc(C(=O)NC)cc1` )
Output: 95 % of control
